Target: Serine/threonine-protein kinase B-raf (Homo sapiens)
observable: pIC50
Answers are plain numbers, as −log10 of the molar value.

Entry `Nc1c(-c2ccc(F)cc2)c(-c2ccncc2)nn1-c1c(Cl)cc(Cl)cc1Cl` : reported pIC50 = ?
6.57

====

Observed pIC50 for Vascular endothelial growth factor receptor 2 (Homo sapiens, UniProt P35968), reported per entry below.
Numbers only, as −log10 of the molar value.

{"smiles_input": "Nc1c(-c2ccc(F)cc2)c(-c2ccncc2)nn1-c1ccc(Cl)cc1", "observable": "pIC50", "measured_value": 5.92}
{"smiles_input": "Fc1ccc(-c2cn(-c3c(Cl)cc(Cl)cc3Cl)nc2-c2ccncc2)cc1", "observable": "pIC50", "measured_value": 6.68}
{"smiles_input": "Cc1ccc(-n2nc(-c3ccncc3)c(-c3ccc(F)cc3)c2N)cc1", "observable": "pIC50", "measured_value": 5.59}

Lab note: next compound to report on.
Entry `Nc1c(-c2ccc(F)cc2)c(-c2ccncc2)nn1-c1c(Cl)cc(Cl)cc1Cl` : reported pIC50 = ?
7.47

====

Target: Serine/threonine-protein kinase B-raf (Homo sapiens, UniProt P15056, V600E)
Sequence (P15056 2-766 V600E limits assumed): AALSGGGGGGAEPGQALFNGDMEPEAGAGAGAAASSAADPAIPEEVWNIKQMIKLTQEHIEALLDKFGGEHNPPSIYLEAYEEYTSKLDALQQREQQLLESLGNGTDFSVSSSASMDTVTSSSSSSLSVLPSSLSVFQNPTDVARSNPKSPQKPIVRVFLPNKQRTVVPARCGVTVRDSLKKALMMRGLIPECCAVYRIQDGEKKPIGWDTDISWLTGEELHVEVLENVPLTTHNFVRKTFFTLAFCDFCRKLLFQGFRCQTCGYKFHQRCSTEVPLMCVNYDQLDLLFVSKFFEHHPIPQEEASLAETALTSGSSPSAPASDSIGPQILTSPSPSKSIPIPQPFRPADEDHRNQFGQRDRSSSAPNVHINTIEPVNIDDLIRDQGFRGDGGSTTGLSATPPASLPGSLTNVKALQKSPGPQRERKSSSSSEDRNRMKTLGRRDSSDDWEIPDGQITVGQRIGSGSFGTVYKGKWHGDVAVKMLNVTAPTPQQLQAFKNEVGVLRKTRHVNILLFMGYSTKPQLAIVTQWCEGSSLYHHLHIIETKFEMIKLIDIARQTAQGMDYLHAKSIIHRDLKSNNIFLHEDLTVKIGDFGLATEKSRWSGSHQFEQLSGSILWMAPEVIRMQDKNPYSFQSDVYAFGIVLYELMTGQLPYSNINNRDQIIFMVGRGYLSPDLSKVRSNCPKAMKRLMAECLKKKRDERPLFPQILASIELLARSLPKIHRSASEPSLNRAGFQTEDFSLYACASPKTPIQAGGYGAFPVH
Assay: Inhibition of BRAF V600E mutant using MEK1-KM as substrate assessed as [33P-gamma]-ATP incorporation after 60 mins by microplate scintillation counting
Please provide measured IC50 for the entries that follow.
Give bare numbers, in nM.

// solved cases for IC50 follow
{"smiles_input": "Nc1c(-c2ccc(F)cc2)c(-c2ccncc2)nn1-c1ccc(Cl)cc1", "measured_value": 800}
{"smiles_input": "Nc1c(-c2ccc(F)cc2)c(-c2ccncc2)nn1-c1ccc([N+](=O)[O-])cc1", "measured_value": 1400}
{"smiles_input": "Nc1c(-c2ccc(F)cc2)c(-c2ccncc2)nn1-c1ccc(C(F)(F)F)cc1", "measured_value": 1500}

I have 3 compounds here; please give me IC50 for each one.
1. Fc1ccc(-c2cn(-c3c(Cl)cc(Cl)cc3Cl)nc2-c2ccncc2)cc1
2. Nc1c(-c2ccc(F)cc2)c(-c2ccncc2)nn1-c1c(Cl)cc(Cl)cc1Cl
3. Cc1ccc(-n2nc(-c3ccncc3)c(-c3ccc(F)cc3)c2N)cc1

2500
592
890

====

Observed pIC50 for Proto-oncogene tyrosine-protein kinase Src (Homo sapiens, UniProt P12931), reported per entry below.
One number for each entry, as −log10 of the molar value.

{"smiles_input": "Nc1c(-c2ccc(F)cc2)c(-c2ccncc2)nn1-c1c(Cl)cc(Cl)cc1Cl", "measured_value": 6.40}
{"smiles_input": "Nc1c(-c2ccc(F)cc2)c(-c2ccncc2)nn1-c1ccc([N+](=O)[O-])cc1", "measured_value": 4.09}

Lab note: next molecule to report on.
Entry `Nc1c(-c2ccc(F)cc2)c(-c2ccncc2)nn1-c1ccc(Cl)cc1` : reported pIC50 = ?
4.64
